System: SNB-78 CNS
ASSAY_PROCEDURE: NCI tumour cell line growth inhibition, 48 h
Examples of molecules with documented TGI follow.

[
  {
    "MOLECULE": "C1=Cc2nc1c(-c1ccccc1)c1ccc([nH]1)c(-c1ccccc1)c1nc(c(-c3ccccc3)c3ccc([nH]3)c2-c2ccccc2)C=C1",
    "TGI": "> 100 µM"
  },
  {
    "MOLECULE": "N=c1c2ccccc2sc2nc3ccccc3n12",
    "TGI": "> 100 µM"
  },
  {
    "MOLECULE": "COc1ccc(/C=C2\\CCC(CCN(C)C)(C3=CCCC3)C2=O)cc1 (stereo not given)",
    "TGI": "56.2 µM"
  }
]

Ask: Endpoint output: TGI of CCCCCCC(O)CC[C@H]1CCC[C@@H](C)N1 (stereo not given in full) . Value?
Reply: > 100 µM

Ask: Look up TGI for this molecule: `CN(C)c1ccc(/C=C(\NC(=O)c2ccccc2)c2nc3ccc4c(c3[nH]2)C(=O)c2ccccc2C4=O)cc1`
Reply: > 100 µM

Ask: Give the measured TGI of `c1ccc2c(c1)NCc1cc3ccccc3nc1O2` .
Reply: > 100 µM

Ask: Consider the molecule shown here: O=C1CCC2(c3ccccc3)Nc3ccccc3N12 (stereo not given) What is its recorded TGI?
Reply: > 100 µM

Ask: Reported TGI for COC(=O)C(C(=O)C(=O)Nc1ccc(C)cc1C)c1csc(-n2nc(-c3ccccc3)cc2-c2ccccc2)n1 (stereo not given) : what is it?
Reply: > 100 µM

Ask: Value lookup for TGI; key = COC(=O)C(=O)C(CC(=O)Nc1ccc(C)cc1)C(=O)OC (stereo not given)
Reply: > 100 µM

Ask: May I ask what TGI has been recorded for `O=C1C(CO)=C[C@H](O)[C@H]2O[C@@H]12` ?
Reply: 480 µM
